test: growth inhibition, single agents and combos, HTB85, cell-based, BGB or cisplatin IC20 combos, synergistic combos for chromothripsis tumors (AID 1671453); details: HTB85 osteosarcoma cells, drug combinations, measured here: with cisplatin IC20, at 0.5 µM, stronger effect = higher value;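 note: cells exposed for 96 hours before readout; 0% = vehicle DMSO and 100% = high DMSO killing control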
recorded endpoint: inhibition (%)
Give just the number in %; leave the unit off.

These recorded examples may help you get a feel for the data.
CN(C)Cc1c(C(=O)NCCOc2ccc(C(=O)NO)cc2)oc2ccccc12    90.7
O=C(COc1cccc2c(=O)[nH]ccc12)c1ccccc1    -15.8
CC(=O)Nc1nc(C)c(-c2ccc(Cl)c(S(=O)(=O)NCCO)c2)s1    8.49

inhibition in this record for NCCOc1cc(C(=O)Nc2cc(OCCN)c3ccccc3n2)nc(C(=O)Nc2cc(OCCN)c3ccccc3n2)c1 : -18.6
